# measurement target: Glycogen synthase kinase-3 alpha (Homo sapiens);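 also: values are mean inhibition of GSK3A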
# experimental conditions: at 0.1 µM
endpoint: inhibition (%)
Please respond with the number in % and leave the unit unwritten.

Sample FC(F)(F)c1cccc(Nc2nccc(-c3cnn4nc(-c5ccccc5)ccc34)n2)c1 ; inhibition observed: 23.5

Sample Cc1ccc(NC(=O)c2ccoc2)cc1-c1ccc(C(=O)NCC2CC2)cc1 ; inhibition observed: 11

Sample COc1ccc2cc(-c3c(-c4ccncc4)nc(-c4ccc(S(C)(=O)=O)cc4C)n3C)ccc2c1 ; inhibition observed: 2.9

Sample COc1cc2ncn(-c3cc(OCc4cccs4)c(C(N)=O)s3)c2cc1OC ; inhibition observed: 0.28

Sample CS(=O)(=O)CCNCc1cc(-c2cc3c(Nc4ccc(OCc5cccc(F)c5)c(Cl)c4)ncnc3s2)cs1 ; inhibition observed: 2.31

Sample COc1cc2ncn(-c3cc(OCc4ccccc4C(F)(F)F)c(C(C)=O)s3)c2cc1OC ; inhibition observed: 1.6

Sample COc1cc(N2CCN(C(C)C)CC2)ccc1Nc1nc(Nc2ccc(F)cc2C(=O)NC[C@@H](O)CO)c2cc[nH]c2n1 ; inhibition observed: -1.27

Sample NC(=O)Cc1ccccc1Oc1nccc(-c2c(-c3ccc(F)cc3)ncn2C2CCNCC2)n1 ; inhibition observed: 1.87

Sample COc1ccc2ncn(-c3cc(O[C@H](C)c4ccccc4Cl)c(C(N)=O)s3)c2c1 ; inhibition observed: -1.42

Sample NC(=O)c1cc(-c2ccc(F)cc2)cc(-c2ccncc2)c1N ; inhibition observed: 1.24

Sample COc1cc(Nc2ncc(-c3ccccc3)o2)cc(OC)c1OC ; inhibition observed: 5.71

Sample Fc1ccc(-c2ncn(C3CCNCC3)c2-c2ccnc(Oc3ccc4c(c3)OCO4)n2)cc1 ; inhibition observed: 2.07

Sample CCN(CC)Cc1ccc(Nc2nccc(-c3cnn4ncccc34)n2)cc1 ; inhibition observed: 24.4

Sample CCc1cccc(CC)c1/C=C/c1cncc(C(=O)NC)c1 ; inhibition observed: 2.14

Sample O=C1NC(=O)C(c2cccc(Cl)c2)=C1Nc1ccc(Cl)c(C(=O)O)c1 ; inhibition observed: 32.8

Sample Fc1ccc(-c2ncn(CCCN3CCOCC3)c2-c2ccncc2)cc1 ; inhibition observed: -0.11

Sample O=C(NCC1CC1)c1ccc(-c2cccc(C(=O)NC3CC3)c2)cc1 ; inhibition observed: 1.5

Sample Cc1nnc(-c2ccc(C)c(-c3ccc(C(=O)NCc4ccc(Cl)cc4)cc3)c2)o1 ; inhibition observed: 0.36

* * *

# measurement target: Casein kinase I isoform gamma-2 (Homo sapiens) (UniProt P78368)
# Sequence (P78368 whole entry, looked up, canonical isoform): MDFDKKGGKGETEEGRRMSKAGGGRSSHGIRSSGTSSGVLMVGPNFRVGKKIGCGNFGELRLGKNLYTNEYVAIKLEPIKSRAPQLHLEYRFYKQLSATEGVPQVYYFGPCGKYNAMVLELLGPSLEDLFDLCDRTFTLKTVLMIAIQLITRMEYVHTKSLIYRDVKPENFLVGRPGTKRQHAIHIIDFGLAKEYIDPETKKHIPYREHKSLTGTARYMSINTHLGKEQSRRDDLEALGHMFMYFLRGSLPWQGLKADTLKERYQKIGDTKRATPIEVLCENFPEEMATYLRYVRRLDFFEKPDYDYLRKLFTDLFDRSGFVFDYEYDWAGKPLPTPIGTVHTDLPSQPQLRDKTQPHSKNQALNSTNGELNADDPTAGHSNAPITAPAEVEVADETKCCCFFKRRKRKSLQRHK
# experimental conditions: at 1 µM
# Description: GSK_PKIS: CK1-g2 mean inhibition at 1 uM [Nanosyn]
endpoint: inhibition (%)
Please respond with the number in % and leave the unit unwritten.

Sample Clc1ccc(CNc2nccc(-c3cnn4ncccc34)n2)cc1 ; inhibition observed: 12

Sample CN(C)c1ccc2c(c1)/C(=C/Nc1ccc(S(N)(=O)=O)cc1)C(=O)N2 ; inhibition observed: 1.27

Sample C[C@@H](Oc1cc(-n2cnc3ccc(OCC4CCN(C)CC4)cc32)sc1C(N)=O)c1ccccc1Cl ; inhibition observed: 7.87

Sample COc1cccc(/C=N/Nc2ncnc3c2cnn3-c2cccc(OC)c2)c1 ; inhibition observed: 3.85

Sample COc1cc2ncn(-c3cc(OCc4ccccc4C(F)(F)F)c(C(C)=O)s3)c2cc1OC ; inhibition observed: 3.62

Sample CCc1ccc(Oc2nccc(-c3c(-c4ccc(F)cc4)ncn3C3CCNCC3)n2)cc1 ; inhibition observed: 11.5

Sample O=C1Nc2ccc(I)cc2C1=Cc1cc(Br)c(O)c(Br)c1 ; inhibition observed: 6.34

Sample COc1cc(N2CCN(C(C)C)CC2)ccc1Nc1nc(Nc2ccc(F)cc2C(=O)NC[C@@H](O)CO)c2cc[nH]c2n1 ; inhibition observed: 15.6

Sample CS(=O)(=O)CCNCc1cc(-c2cc3c(Nc4ccc(OCc5cccc(F)c5)c(Cl)c4)ncnc3s2)cs1 ; inhibition observed: 4.61

Sample NCc1ccc(-n2c(-c3nonc3N)nc3cnccc32)cc1 ; inhibition observed: 7.87

Sample FC(F)(F)c1cccc(Nc2nccc(-c3cnn4nc(-c5ccccc5)ccc34)n2)c1 ; inhibition observed: 2.62

Sample Nc1nccc(-c2c(-c3ccc(F)cc3)ncn2C2CCC(O)CC2)n1 (stereo unspecified) ; inhibition observed: 3.41

Sample CCC(=O)Nc1ccc(C)c(-c2ccc(C(=O)NCC3CC3)cc2)c1 ; inhibition observed: 3.16

Sample O=C(NCC1CC1)c1ccc(-c2cccc(C(=O)NC3CC3)c2)cc1 ; inhibition observed: 2.47

Sample COc1ccc2ncn(-c3cc(O[C@H](C)c4ccccc4Cl)c(C(N)=O)s3)c2c1 ; inhibition observed: 0.41

Sample c1ccc(Oc2ccc(Nc3ncc(-c4ccccc4)o3)cc2)cc1 ; inhibition observed: 2.07

Sample COc1cc(Nc2ncc(-c3ccccc3)o2)cc(OC)c1OC ; inhibition observed: -0.69

Sample NC(=O)c1cc(-c2ccc(F)cc2)cc(-c2ccncc2)c1N ; inhibition observed: 6.08

Sample CCS(=O)(=O)c1ccc(OC)c(Nc2ncc(-c3cccc(-c4ccccc4F)c3)o2)c1 ; inhibition observed: -0.35

Sample Fc1ccc(-c2ncn(C3CCNCC3)c2-c2ccnc(Oc3ccc(Oc4ccccc4)cc3)n2)cc1 ; inhibition observed: 14.6

Sample O=C(Nc1n[nH]c2cc(-c3cc(F)ccc3F)ccc12)C1CC1 ; inhibition observed: 3.38

Sample Fc1ccc(-c2c(-c3ccncc3)nc3n2CCS3)cc1 ; inhibition observed: -0.73

Sample O=C(Nc1n[nH]c2nc(-c3ccc(O)cc3)c(Br)cc12)C1CC1 ; inhibition observed: 7.38

Sample COc1cccc(-n2cnc3c(N/N=C/c4ccncc4)ncnc32)c1 ; inhibition observed: -5.36

Sample NS(=O)(=O)c1ccc(N/N=C2\C(=O)Nc3ccc(-c4cnco4)cc32)cc1 ; inhibition observed: 0.36

Sample CCc1nccc2c1nc(-c1nonc1N)n2CC ; inhibition observed: 3.36

Sample Cc1ccc(C(=O)NC2CCC2)cc1-c1ccc(C(=O)NCC2CC2)cc1 ; inhibition observed: 2.95

Sample Fc1ccc(-c2ncn(C3CCNCC3)c2-c2ccnc(Oc3ccc(F)c(F)c3)n2)cc1 ; inhibition observed: 1.91

Sample C/C(Nc1ccc(S(N)(=O)=O)cc1)=C1/C(=O)Nc2ccccc21 ; inhibition observed: 18.7

Sample NC(=O)c1ccc(Oc2nccc(-c3c(-c4ccc(F)cc4)ncn3C3CCNCC3)n2)cc1 ; inhibition observed: 7.07

Sample O=C1Nc2ccccc2/C1=C/Nc1ccc(-n2cncn2)cc1 ; inhibition observed: 8.25

* * *

# measurement target: Serine/threonine-protein kinase BRSK2 (Homo sapiens) (UniProt Q8IWQ3);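 also: mean kinase inhibition reported within the GSK PKIS dataset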
# Sequence (Q8IWQ3 whole entry): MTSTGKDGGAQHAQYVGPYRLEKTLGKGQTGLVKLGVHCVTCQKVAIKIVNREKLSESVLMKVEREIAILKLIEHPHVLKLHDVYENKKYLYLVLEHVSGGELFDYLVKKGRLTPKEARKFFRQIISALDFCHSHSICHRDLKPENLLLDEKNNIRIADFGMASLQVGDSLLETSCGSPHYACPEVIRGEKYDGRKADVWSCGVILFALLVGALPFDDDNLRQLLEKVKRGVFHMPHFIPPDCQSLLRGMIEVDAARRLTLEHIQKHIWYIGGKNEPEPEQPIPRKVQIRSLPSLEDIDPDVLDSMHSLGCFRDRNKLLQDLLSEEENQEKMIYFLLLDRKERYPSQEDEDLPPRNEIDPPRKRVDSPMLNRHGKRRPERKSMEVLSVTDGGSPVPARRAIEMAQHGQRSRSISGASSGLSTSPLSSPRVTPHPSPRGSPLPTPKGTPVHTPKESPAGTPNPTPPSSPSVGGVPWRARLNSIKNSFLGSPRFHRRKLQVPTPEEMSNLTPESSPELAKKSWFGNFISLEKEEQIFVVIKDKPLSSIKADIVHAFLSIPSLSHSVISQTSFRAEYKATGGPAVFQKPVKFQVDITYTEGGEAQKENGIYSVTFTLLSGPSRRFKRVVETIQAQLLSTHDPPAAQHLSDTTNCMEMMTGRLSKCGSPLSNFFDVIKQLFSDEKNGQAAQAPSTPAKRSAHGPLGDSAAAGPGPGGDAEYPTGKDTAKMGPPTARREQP
# experimental conditions: at 1 µM
endpoint: inhibition (%)
Please respond with the number in % and leave the unit unwritten.

Sample Cc1ccc(NC(=O)c2ccoc2)cc1-c1ccc(C(=O)NCC2CC2)cc1 ; inhibition observed: 0.95

Sample COc1ccc2cc(-c3c(-c4ccncc4)nc(-c4ccc(S(C)(=O)=O)cc4C)n3C)ccc2c1 ; inhibition observed: 3.04

Sample NS(=O)(=O)c1ccc(N/N=C2\C(=O)Nc3ccc(-c4cnco4)cc32)cc1 ; inhibition observed: 23.8

Sample Nc1nccc(-c2c(-c3ccc(F)cc3)ncn2C2CCC(O)CC2)n1 (stereo not drawn) ; inhibition observed: 1.19

Sample O=C(Nc1ccc(Oc2ccc3[nH]c(NC(=O)c4ccccc4)nc3c2)cc1)Nc1cc(C(F)(F)F)ccc1F ; inhibition observed: 2.83

Sample CS(=O)(=O)CCNCc1ccc(-c2ccc3ncnc(Nc4ccc(OCc5ccccc5)c(Br)c4)c3c2)o1 ; inhibition observed: 2.06

Sample Fc1ccc(-c2nc3n(c2-c2ccncc2)CCS3)cc1 ; inhibition observed: 0.5

Sample O=C(Nc1n[nH]c2nc(-c3ccco3)ccc12)C1CC1 ; inhibition observed: 4.63

Sample O=C(NCC1CC1)c1ccc(-c2cccc(C(=O)NC3CC3)c2)cc1 ; inhibition observed: -1.6

Sample Fc1ccc(-c2c(-c3ccncc3)nc3n2CCS3)cc1 ; inhibition observed: 3.65

Sample COc1ccc(-c2ccc3c(NC(=O)C4CC4)n[nH]c3n2)cc1 ; inhibition observed: 10.7

Sample CCN(CC)Cc1ccc(Nc2nccc(-c3cnn4ncccc34)n2)cc1 ; inhibition observed: 10.6

Sample C/C(Nc1ccc(S(N)(=O)=O)cc1)=C1/C(=O)Nc2ccccc21 ; inhibition observed: 31.1

* * *

# measurement target: Dual specificity protein kinase CLK2 (Homo sapiens) (UniProt P49760);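 also: reported values are mean percent inhibition of CLK2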
# Sequence (P49760 whole entry, looked up): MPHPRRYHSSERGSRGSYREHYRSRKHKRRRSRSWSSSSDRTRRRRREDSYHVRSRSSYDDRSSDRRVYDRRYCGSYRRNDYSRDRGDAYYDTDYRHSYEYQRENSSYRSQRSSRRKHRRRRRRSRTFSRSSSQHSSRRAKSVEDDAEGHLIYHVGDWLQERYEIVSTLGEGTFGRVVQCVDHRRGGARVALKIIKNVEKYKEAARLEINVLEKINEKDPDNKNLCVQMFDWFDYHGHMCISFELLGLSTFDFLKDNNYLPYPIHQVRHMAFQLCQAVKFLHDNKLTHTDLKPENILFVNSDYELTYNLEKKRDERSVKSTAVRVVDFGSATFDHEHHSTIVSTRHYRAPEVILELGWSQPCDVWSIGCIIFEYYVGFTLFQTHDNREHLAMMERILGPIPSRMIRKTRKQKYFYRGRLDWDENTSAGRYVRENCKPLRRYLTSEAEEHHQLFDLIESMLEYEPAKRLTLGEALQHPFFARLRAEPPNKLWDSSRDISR
# experimental conditions: at 1 µM
endpoint: inhibition

Hey, Dual specificity protein kinase CLK2 (Homo sapiens) (UniProt P49760) data for CN(C)CCOc1ccc(-c2cc(-c3ccc4c(c3)CCC4=NO)c(-c3ccncc3)o2)cc1 : inhibition came out at -1.28%

Hey, Dual specificity protein kinase CLK2 (Homo sapiens) (UniProt P49760) data for Cc1ccc(C(=O)NC2CCC2)cc1-c1ccc(C(=O)NCC2CC2)cc1 : inhibition came out at 1.37%

Hey, Dual specificity protein kinase CLK2 (Homo sapiens) (UniProt P49760) data for NS(=O)(=O)c1ccc(N/N=C2\C(=O)Nc3ccc(C(=O)NCCCn4ccnc4)cc32)cc1 : inhibition came out at 66.1%

Hey, Dual specificity protein kinase CLK2 (Homo sapiens) (UniProt P49760) data for COc1ccc2cc(-c3c(-c4ccncc4)nc(-c4ccc([S+](C)[O-])cc4C)n3C)ccc2c1 (stereo unspecified) : inhibition came out at 1.03%

Hey, Dual specificity protein kinase CLK2 (Homo sapiens) (UniProt P49760) data for Cc1ccc(NC(=O)c2ccoc2)cc1-c1ccc(C(=O)NCC2CC2)cc1 : inhibition came out at -2.64%

Hey, Dual specificity protein kinase CLK2 (Homo sapiens) (UniProt P49760) data for Fc1ccc(-c2nc3n(c2-c2ccncc2)CCS3)cc1 : inhibition came out at 0.05%
